- TEST DETAILS: Quantity of the metabolite found in the urine of the embryonal rhabdomyosarcoma patients treated with ifosfamide from 1500 mL of urine tested on day 9
- Format: ADME
- ASSAY CONTEXT: human
# note: boundary value 200 mg maps to rule not met; Quantity below it maps to rule met

Example entries begin here.
For this compound, is Quantity lower than 200 mg? `O=C(O)CCOP(=O)(NCCCl)NCCCl` rule met

Can you check O=P1(NCCCl)OCCCN1CCCl (stereo not given) [IFOSFAMIDE] next? rule not met

More entries:
For this compound, is Quantity lower than 200 mg? O=P1(NCCCl)NCCCO1 (stereo not given) rule not met

Can you check O=C1CCOP(=O)(NCCCl)N1CCCl (stereo not given) [4-KETOIFOSFAMIDE] next? rule met

Can you check NP1(=O)OCCCN1CCCl (stereo not given) next? rule not met

All values here come from ChEMBL document CHEMBL1122297.
